Target Under Test: T1, recombinant human periostin (human, UniProt Q15063 22-836)
T1 sequence: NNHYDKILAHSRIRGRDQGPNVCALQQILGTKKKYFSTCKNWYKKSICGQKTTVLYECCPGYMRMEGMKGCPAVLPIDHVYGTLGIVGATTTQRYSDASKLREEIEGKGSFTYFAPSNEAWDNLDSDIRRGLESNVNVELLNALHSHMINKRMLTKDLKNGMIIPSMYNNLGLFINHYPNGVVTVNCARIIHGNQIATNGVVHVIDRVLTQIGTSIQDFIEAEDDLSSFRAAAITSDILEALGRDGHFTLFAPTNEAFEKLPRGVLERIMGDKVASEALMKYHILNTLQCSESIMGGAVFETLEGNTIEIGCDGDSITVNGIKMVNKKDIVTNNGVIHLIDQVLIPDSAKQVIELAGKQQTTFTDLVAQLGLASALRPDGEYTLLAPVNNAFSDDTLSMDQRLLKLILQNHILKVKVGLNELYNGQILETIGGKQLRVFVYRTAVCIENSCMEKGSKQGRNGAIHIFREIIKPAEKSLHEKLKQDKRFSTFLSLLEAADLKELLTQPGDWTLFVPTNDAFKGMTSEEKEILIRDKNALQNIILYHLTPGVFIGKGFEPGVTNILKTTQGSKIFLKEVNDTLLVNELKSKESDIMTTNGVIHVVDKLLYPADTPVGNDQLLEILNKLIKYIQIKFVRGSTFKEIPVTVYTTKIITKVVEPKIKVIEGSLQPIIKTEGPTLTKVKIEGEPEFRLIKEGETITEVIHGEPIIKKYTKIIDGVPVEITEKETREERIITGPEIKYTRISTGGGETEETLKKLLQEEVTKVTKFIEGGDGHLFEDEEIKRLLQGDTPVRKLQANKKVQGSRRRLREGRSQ
Experiment Notes: cell-based or functional assay
Recorded Endpoint: CAA IC50 (nM)
# output: bare number, implied unit nM

NB1015 (N55D) (antibody, V domains shown, Variant of NB0828 (IgG4PAA parent); the isotype of the variant is not restated) VH: QVQLVQSGAEVKKPGASVKVSCKASGYTFTSYGISWVRQAPGQGLEWMGWISAYDGNTNYAQKLQGRVTMTTDTSTSTAYMELRSLRSDDTAVYYCARDMLVVPFDYWGQGTLVTVSS VL: QSVLTQSSSASGTPGQTVTVSCSGSSSDIGSNRVNWYQQLPGTAPKLLIYSNDQRPSGVPDRFSGSKSGTSASLAISGLQSADEADYYCAAWDDSLSTYVFGSGTKVTVL
13.6

Measured CAA IC50, NB1003 (N55S) (antibody, V domains shown, Variant of NB0828 (IgG4PAA parent); the isotype of the variant is not restated) VH: QVQLVQSGAEVKKPGASVKVSCKASGYTFTSYGISWVRQAPGQGLEWMGWISAYSGNTNYAQKLQGRVTMTTDTSTSTAYMELRSLRSDDTAVYYCARDMLVVPFDYWGQGTLVTVSS VL: QSVLTQSSSASGTPGQTVTVSCSGSSSDIGSNRVNWYQQLPGTAPKLLIYSNDQRPSGVPDRFSGSKSGTSASLAISGLQSADEADYYCAAWDDSLSTYVFGSGTKVTVL : 10.8
